- PROTOCOL NOTES: oral TGR-1202 under fasted and fed conditions, pharmacokinetics
- RUN CONDITIONS: in vivo, 200 mg, Fasting, single oral dose of 200 mg, read-out: Cmax, Geometric LS Means
PARAMETER: Cmax (ng/mL)
One number for each entry, in ng/mL.

For reference, reported Cmax for CC(C)Oc1ccc(-c2nn([C@@H](C)c3oc4ccc(F)cc4c(=O)c3-c3cccc(F)c3)c3ncnc(N)c23)cc1F [TGR-1202] stands at 177

---

- SYSTEM: PI3K isoforms (Human) γ (Homo sapiens)
- Sequence (P48736 whole entry, canonical isoform): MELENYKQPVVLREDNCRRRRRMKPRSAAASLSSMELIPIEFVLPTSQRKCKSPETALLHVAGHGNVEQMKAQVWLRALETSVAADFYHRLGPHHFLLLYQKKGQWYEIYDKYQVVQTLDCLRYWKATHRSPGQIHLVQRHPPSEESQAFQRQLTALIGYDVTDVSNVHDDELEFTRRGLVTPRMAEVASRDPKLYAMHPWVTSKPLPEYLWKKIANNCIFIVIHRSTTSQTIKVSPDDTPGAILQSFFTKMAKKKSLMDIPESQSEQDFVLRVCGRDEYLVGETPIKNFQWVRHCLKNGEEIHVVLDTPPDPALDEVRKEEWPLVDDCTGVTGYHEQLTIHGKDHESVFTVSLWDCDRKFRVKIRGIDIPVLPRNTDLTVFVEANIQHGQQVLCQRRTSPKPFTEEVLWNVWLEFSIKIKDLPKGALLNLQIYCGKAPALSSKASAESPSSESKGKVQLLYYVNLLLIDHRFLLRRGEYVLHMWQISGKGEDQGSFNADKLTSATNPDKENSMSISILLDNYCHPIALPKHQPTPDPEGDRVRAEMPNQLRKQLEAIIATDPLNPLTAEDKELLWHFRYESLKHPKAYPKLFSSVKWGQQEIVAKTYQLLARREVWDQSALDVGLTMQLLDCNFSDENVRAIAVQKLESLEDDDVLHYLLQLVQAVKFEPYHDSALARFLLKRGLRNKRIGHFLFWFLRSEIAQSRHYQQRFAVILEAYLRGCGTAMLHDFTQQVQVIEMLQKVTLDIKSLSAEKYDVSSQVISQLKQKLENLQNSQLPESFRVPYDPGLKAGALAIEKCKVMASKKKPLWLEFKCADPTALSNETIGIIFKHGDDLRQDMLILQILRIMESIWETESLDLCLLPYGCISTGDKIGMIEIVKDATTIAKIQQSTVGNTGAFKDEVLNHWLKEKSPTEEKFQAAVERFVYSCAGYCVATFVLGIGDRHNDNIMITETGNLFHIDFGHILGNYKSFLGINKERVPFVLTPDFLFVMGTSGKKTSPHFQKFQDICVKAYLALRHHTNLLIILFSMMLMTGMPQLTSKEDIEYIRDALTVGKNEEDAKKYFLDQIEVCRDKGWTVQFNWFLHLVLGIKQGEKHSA
- PROTOCOL NOTES: biochemical
PARAMETER: pIC50
Numbers only, as −log10 of the molar value.

For reference, reported pIC50 for CC(C)Oc1ccc(-c2nn([C@@H](C)c3oc4ccc(F)cc4c(=O)c3-c3cccc(F)c3)c3ncnc(N)c23)cc1F stands at 5.97

---

- PROTOCOL NOTES: micronized vs non-micronized TGR-1202 formulations, pharmacokinetics
- RUN CONDITIONS: in vivo, po, 200 mg, Micronized Formulation; single oral dose of 200 mg; read-out: AUC0-inf, Geometric LS Means
PARAMETER: AUC(0-inf) (ng·h/mL)
Answers are plain numbers, in ng·h/mL.

For reference, reported AUC(0-inf) for CC(C)Oc1ccc(-c2nn([C@@H](C)c3oc4ccc(F)cc4c(=O)c3-c3cccc(F)c3)c3ncnc(N)c23)cc1F [TGR-1202] stands at 12400

---

- SYSTEM: PI3K isoforms (Human) β (Homo sapiens)
- Sequence (P42338 whole entry, canonical isoform): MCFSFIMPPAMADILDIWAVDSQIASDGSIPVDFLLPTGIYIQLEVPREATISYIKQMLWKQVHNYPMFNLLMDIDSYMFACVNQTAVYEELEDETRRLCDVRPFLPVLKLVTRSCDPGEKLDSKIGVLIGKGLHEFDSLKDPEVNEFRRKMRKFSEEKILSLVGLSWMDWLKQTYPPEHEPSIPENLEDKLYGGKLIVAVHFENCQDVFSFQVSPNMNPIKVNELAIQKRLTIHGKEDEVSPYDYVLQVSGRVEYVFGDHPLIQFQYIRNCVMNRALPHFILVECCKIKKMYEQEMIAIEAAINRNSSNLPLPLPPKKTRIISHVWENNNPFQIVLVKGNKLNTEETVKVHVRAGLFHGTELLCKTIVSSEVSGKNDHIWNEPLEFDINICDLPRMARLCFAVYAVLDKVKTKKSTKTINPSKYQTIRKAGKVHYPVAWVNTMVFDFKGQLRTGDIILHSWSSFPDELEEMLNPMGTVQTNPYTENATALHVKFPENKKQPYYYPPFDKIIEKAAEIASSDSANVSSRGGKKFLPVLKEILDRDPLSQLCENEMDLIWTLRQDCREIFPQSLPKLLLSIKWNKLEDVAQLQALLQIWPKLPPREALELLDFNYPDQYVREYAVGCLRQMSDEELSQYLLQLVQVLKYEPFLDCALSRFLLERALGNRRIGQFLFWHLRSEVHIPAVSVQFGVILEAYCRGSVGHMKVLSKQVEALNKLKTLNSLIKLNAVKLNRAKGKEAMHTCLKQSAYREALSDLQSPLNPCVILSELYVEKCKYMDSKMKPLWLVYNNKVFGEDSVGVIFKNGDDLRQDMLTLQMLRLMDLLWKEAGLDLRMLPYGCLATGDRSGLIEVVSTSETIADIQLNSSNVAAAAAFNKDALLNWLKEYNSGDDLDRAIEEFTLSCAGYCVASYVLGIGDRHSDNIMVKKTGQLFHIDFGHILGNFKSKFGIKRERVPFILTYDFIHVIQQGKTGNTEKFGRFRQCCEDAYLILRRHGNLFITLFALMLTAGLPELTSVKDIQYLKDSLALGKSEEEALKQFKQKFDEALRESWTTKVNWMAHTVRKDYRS
- Sequence (P27986 whole entry partner, canonical isoform): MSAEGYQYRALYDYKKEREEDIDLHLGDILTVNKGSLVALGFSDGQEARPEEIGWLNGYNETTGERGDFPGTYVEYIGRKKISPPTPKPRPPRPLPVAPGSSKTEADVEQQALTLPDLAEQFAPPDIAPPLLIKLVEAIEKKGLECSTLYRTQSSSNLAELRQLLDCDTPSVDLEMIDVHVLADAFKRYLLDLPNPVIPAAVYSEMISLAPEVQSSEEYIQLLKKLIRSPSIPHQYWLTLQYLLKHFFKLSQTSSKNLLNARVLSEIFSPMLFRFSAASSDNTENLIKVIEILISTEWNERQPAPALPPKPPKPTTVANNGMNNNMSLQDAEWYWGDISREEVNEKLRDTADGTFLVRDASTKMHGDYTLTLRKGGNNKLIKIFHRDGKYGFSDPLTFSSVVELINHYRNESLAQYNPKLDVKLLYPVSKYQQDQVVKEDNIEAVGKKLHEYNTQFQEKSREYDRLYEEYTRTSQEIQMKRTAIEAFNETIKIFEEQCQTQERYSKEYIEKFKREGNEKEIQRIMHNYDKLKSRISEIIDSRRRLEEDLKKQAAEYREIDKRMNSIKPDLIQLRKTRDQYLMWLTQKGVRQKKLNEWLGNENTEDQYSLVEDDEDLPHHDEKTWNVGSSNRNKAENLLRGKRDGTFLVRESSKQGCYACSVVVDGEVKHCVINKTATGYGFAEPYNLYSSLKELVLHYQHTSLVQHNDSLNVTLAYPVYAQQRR
- PROTOCOL NOTES: biochemical
PARAMETER: IC50
Just so you know, I need the unit written after the number.

For reference, reported IC50 for CC(C)Oc1ccc(-c2nn([C@@H](C)c3oc4ccc(F)cc4c(=O)c3-c3cccc(F)c3)c3ncnc(N)c23)cc1F [TGR-1202] stands at 1120 nM

---

- PROTOCOL NOTES: oral TGR-1202 under fasted and fed conditions, pharmacokinetics
- RUN CONDITIONS: in vivo, 200 mg, Fasting, single oral dose of 200 mg, read-out: AUC0-inf, Geometric LS Means
PARAMETER: AUC(0-inf) (ng·h/mL)
Give bare numbers, in ng·h/mL.

For reference, reported AUC(0-inf) for CC(C)Oc1ccc(-c2nn([C@@H](C)c3oc4ccc(F)cc4c(=O)c3-c3cccc(F)c3)c3ncnc(N)c23)cc1F [TGR-1202] stands at 8390

---

- PROTOCOL NOTES: oral TGR-1202 under fasted and fed conditions, pharmacokinetics
- RUN CONDITIONS: in vivo, 200 mg, Fasting, single oral dose of 200 mg, read-out: AUC0-t, Geometric LS Means
PARAMETER: AUC(0-t) (µg·h/mL)
Give bare numbers, in µg·h/mL.

For reference, reported AUC(0-t) for CC(C)Oc1ccc(-c2nn([C@@H](C)c3oc4ccc(F)cc4c(=O)c3-c3cccc(F)c3)c3ncnc(N)c23)cc1F stands at 6.03

---

- PROTOCOL NOTES: micronized vs non-micronized TGR-1202 formulations, pharmacokinetics
- RUN CONDITIONS: in vivo, po, 200 mg, Non-Micronized Formulation; single oral dose of 200 mg; read-out: AUC0-inf, Geometric LS Means
PARAMETER: AUC(0-inf) (ng·h/mL)
Numbers only, in ng·h/mL.

For reference, reported AUC(0-inf) for CC(C)Oc1ccc(-c2nn([C@@H](C)c3oc4ccc(F)cc4c(=O)c3-c3cccc(F)c3)c3ncnc(N)c23)cc1F [TGR-1202] stands at 7720

---

- PROTOCOL NOTES: micronized vs non-micronized TGR-1202 formulations, pharmacokinetics
- RUN CONDITIONS: in vivo, po, 200 mg, Micronized Formulation; single oral dose of 200 mg; read-out: Cmax, Geometric LS Means
PARAMETER: Cmax (ng/mL)
Give bare numbers, in ng/mL.

For reference, reported Cmax for CC(C)Oc1ccc(-c2nn([C@@H](C)c3oc4ccc(F)cc4c(=O)c3-c3cccc(F)c3)c3ncnc(N)c23)cc1F [TGR-1202] stands at 372
